- PROTOCOL_NOTES: Bioavailability in the portal circulation after 30 minutes was determined after intraduodenal dose of 10 mg/kg in rat by renin inhibition assay
- Type: ADME, organism-based
- SETTINGS: plasma (portal circulation), read-out: Plasma level
MEASUREMENT_TYPE: concentration at 0.5 h (ng/mL)
Numbers only here, please. The scale is ng/mL.

Which concentration at 0.5 h value belongs to CC(C)C[C@H](O)[C@H](O)[C@H](CC1CCCCC1)NC(=O)[C@H](Cc1cscn1)NC(=O)[C@H](Cc1ccccc1)CS(=O)(=O)C(C)(C)C ? 500

Which concentration at 0.5 h value belongs to COCCOCOCCN(C)C(=O)C[C@@H](Cc1ccccc1)C(=O)N[C@@H](Cc1cscn1)C(=O)N[C@@H](CC1CCCCC1)[C@@H](O)[C@@H](O)CC(C)C ? 3100

Which concentration at 0.5 h value belongs to CC(C)C[C@H](O)[C@H](O)[C@H](CC1CCCCC1)NC(=O)[C@H](Cc1cscn1)NC(=O)[C@@H](CC(=O)N(C)CCN(C)C)Cc1ccccc1 ? 780

Which concentration at 0.5 h value belongs to CC(C)C[C@H](O)[C@H](O)[C@H](CC1CCCCC1)NC(=O)[C@H](Cc1cscn1)NC(=O)[C@@H](CC(=O)N(C)CCc1ccccn1)Cc1ccccc1 ? 560

Which concentration at 0.5 h value belongs to CC(C)C[C@H](O)[C@H](O)[C@H](CC1CCCCC1)NC(=O)[C@H](Cc1cscn1)NC(=O)[C@@H](CC(=O)N(C)CCN1CCN(C)CC1)Cc1ccccc1 ? 590

###

- PROTOCOL_NOTES: Peak concentration was determined in systemic circulation after intraduodenal dose of 10 mg/kg in ferret
- Type: ADME, organism-based, Mustela putorius furo
- Set-up: dose 10 mg/kg, route intraduodenal
- SETTINGS: in vivo, read-out: Activity
Kindly supply the reported Cmax values for the records listed here.
Numbers only here, please. The scale is ng/mL.

Which Cmax value belongs to CC(C)C[C@H](O)[C@H](O)[C@H](CC1CCCCC1)NC(=O)[C@H](Cc1cscn1)NC(=O)[C@@H](CC(=O)N(C)CCN1CCOCC1)Cc1ccccc1 ? 860

Which Cmax value belongs to CC(C)C[C@H](O)[C@H](O)[C@H](CC1CCCCC1)NC(=O)[C@H](Cc1cscn1)NC(=O)[C@H](Cc1ccccc1)CS(=O)(=O)N1CCN(C)CC1 [ZANKIREN] ? 940

Which Cmax value belongs to CC(C)C[C@H](O)[C@H](O)[C@H](CC1CCCCC1)NC(=O)[C@H](Cn1cccn1)NC(=O)[C@@H](CC(=O)N(C)CCc1ccccn1)Cc1ccccc1 ? 400

Which Cmax value belongs to CC(C)C[C@H](O)[C@H](O)[C@H](CC1CCCCC1)NC(=O)[C@H](Cc1cscn1)NC(=O)[C@H](Cc1ccccc1)CS(=O)(=O)C1CN(C)C1 ? 790

###

- PROTOCOL_NOTES: Peak concentration was determined in systemic circulation after intraduodenal dose of 10 mg/kg in rat, determined by renin inhibition assay
- Type: ADME, organism-based
- Set-up: dose 10 mg/kg, route intraduodenal
- SETTINGS: in vivo, read-out: Activity
MEASUREMENT_TYPE: Cmax (ng/mL)
Numbers only here, please. The scale is ng/mL.

Which Cmax value belongs to CC(C)C[C@H](O)[C@H](O)[C@H](CC1CCCCC1)NC(=O)[C@H](Cc1cscn1)NC(=O)[C@@H](CC(=O)N(C)CCc1ccccn1)Cc1ccccc1 ? 980

###

Kindly supply the reported bioavailability values for the records listed here.
- PROTOCOL_NOTES: Bioavailability in ferret (dose 10 mg/kg i.d.)
- Format: ADME, organism-based, Mustela putorius furo
- SETTINGS: in vivo
Numbers only here, please. The scale is %.

Which bioavailability value belongs to CC(C)C[C@H](O)[C@H](O)[C@H](CC1CCCCC1)NC(=O)[C@H](Cc1cscn1)NC(=O)[C@H](Cc1ccccc1)CS(=O)(=O)C1CN(C)C1 ? 80

Which bioavailability value belongs to CC(C)C[C@H](O)[C@H](O)[C@H](CC1CCCCC1)NC(=O)[C@H](Cn1cccn1)NC(=O)[C@@H](CC(=O)N(C)CCc1ccccn1)Cc1ccccc1 ? 35

Which bioavailability value belongs to CC(C)C[C@H](O)[C@H](O)[C@H](CC1CCCCC1)NC(=O)[C@H](Cc1cscn1)NC(=O)[C@H](Cc1ccccc1)CS(=O)(=O)N1CCN(C)CC1 ? 82

Which bioavailability value belongs to CC(C)C[C@H](O)[C@H](O)[C@H](CC1CCCCC1)NC(=O)[C@H](Cc1cscn1)NC(=O)[C@@H](CC(=O)N(C)CCN1CCOCC1)Cc1ccccc1 ? 85

###

- PROTOCOL_NOTES: Integrated area under the plasma drug level-time curve was determined in systemic circulation after intraduodenal dose of 10 mg/kg in ferret
- Type: ADME, organism-based, Mustela putorius furo
- Parameters: dose 10 mg/kg, route intraduodenal
MEASUREMENT_TYPE: AUC (µg·h/mL)
Numbers only here, please. The scale is µg·h/mL.

Which AUC value belongs to CC(C)C[C@H](O)[C@H](O)[C@H](CC1CCCCC1)NC(=O)[C@H](Cn1cccn1)NC(=O)[C@@H](CC(=O)N(C)CCc1ccccn1)Cc1ccccc1 ? 0.87

Which AUC value belongs to CC(C)C[C@H](O)[C@H](O)[C@H](CC1CCCCC1)NC(=O)[C@H](Cc1cscn1)NC(=O)[C@@H](CC(=O)N(C)CCN1CCOCC1)Cc1ccccc1 ? 1.2

Which AUC value belongs to CC(C)C[C@H](O)[C@H](O)[C@H](CC1CCCCC1)NC(=O)[C@H](Cc1cscn1)NC(=O)[C@H](Cc1ccccc1)CS(=O)(=O)C1CN(C)C1 ? 2

Which AUC value belongs to CC(C)C[C@H](O)[C@H](O)[C@H](CC1CCCCC1)NC(=O)[C@H](Cc1cscn1)NC(=O)[C@H](Cc1ccccc1)CS(=O)(=O)N1CCN(C)CC1 [ZANKIREN] ? 1.5

###

- TESTED_TARGET: Renin (Homo sapiens)
- Sequence (P00797 whole entry): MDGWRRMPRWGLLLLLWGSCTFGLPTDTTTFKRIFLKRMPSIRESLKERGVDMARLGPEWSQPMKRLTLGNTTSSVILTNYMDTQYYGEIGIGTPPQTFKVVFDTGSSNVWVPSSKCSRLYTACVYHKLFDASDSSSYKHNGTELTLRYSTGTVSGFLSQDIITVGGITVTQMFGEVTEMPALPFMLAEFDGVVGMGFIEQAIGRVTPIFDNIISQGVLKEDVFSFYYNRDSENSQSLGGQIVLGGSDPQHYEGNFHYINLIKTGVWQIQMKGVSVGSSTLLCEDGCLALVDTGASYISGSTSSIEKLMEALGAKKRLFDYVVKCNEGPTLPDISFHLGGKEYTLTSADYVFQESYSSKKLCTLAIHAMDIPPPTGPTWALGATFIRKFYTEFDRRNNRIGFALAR
- PROTOCOL_NOTES: Inhibitory concentration against human plasma renin at pH 7.4
- Format: cell-free
MEASUREMENT_TYPE: IC50 (nM)
Numbers only here, please. The scale is nM.

Which IC50 value belongs to CC(C)C[C@H](O)[C@H](O)[C@H](CC1CCCCC1)NC(=O)[C@H](Cc1cscn1)NC(=O)[C@H](Cc1ccccc1)CS(=O)(=O)C1CCN(C)CC1 ? 4

Which IC50 value belongs to CC(C)C[C@H](O)[C@H](O)[C@H](CC1CCCCC1)NC(=O)[C@H](Cc1cscn1)NC(=O)[C@@H](CC(=O)N(C)CCc1c[nH]c2ccccc12)Cc1ccccc1 ? 33

Which IC50 value belongs to COCCN(C)C(=O)C[C@@H](Cc1ccccc1)C(=O)N[C@@H](Cc1cscn1)C(=O)N[C@@H](CC1CCCCC1)[C@@H](O)[C@@H](O)CC(C)C ? 4.1

Which IC50 value belongs to CC(C)C[C@H](O)[C@H](O)[C@H](CC1CCCCC1)NC(=O)[C@H](Cc1cscn1)NC(=O)[C@@H](CC(=O)N(C)CCn1ccnc1)Cc1ccccc1 ? 1.3

Which IC50 value belongs to CC(C)C[C@H](O)[C@H](O)[C@H](CC1CCCCC1)NC(=O)[C@H](Cc1cscn1)NC(=O)[C@@H](CC(=O)NCCc1ccccn1)Cc1ccccc1 ? 37

Which IC50 value belongs to CC(C)C[C@H](O)[C@H](O)[C@H](CC1CCCCC1)NC(=O)[C@H](Cc1cscn1)NC(=O)[C@H](Cc1ccccc1)CS(=O)(=O)N(C)CCc1ccccn1 ? 1.8

Which IC50 value belongs to COCCOCOCCN(C)C(=O)C[C@@H](Cc1ccccc1)C(=O)N[C@@H](Cc1cscn1)C(=O)N[C@@H](CC1CCCCC1)[C@@H](O)[C@@H](O)CC(C)C ? 1.6

Which IC50 value belongs to CC(C)C[C@H](O)[C@H](O)[C@H](CC1CCCCC1)NC(=O)[C@H](Cc1cscn1)NC(=O)[C@@H](CC(=O)N(C)CCN1CCN(C)CC1)Cc1ccccc1 ? 8.5

Which IC50 value belongs to CC(C)C[C@H](O)[C@H](O)[C@H](CC1CCCCC1)NC(=O)[C@H](Cc1cscn1)NC(=O)[C@@H](CC(=O)N(C)CCCN(C)C)Cc1ccccc1 ? 8.1

Which IC50 value belongs to CC(C)C[C@H](O)[C@H](O)[C@H](CC1CCCCC1)NC(=O)[C@H](Cc1cscn1)NC(=O)[C@@H](CC(=O)N(C)CCn1cccn1)Cc1ccccc1 ? 0.72

Which IC50 value belongs to CC(C)C[C@H](O)[C@H](O)[C@H](CC1CCCCC1)NC(=O)[C@H](Cn1ccnc1)NC(=O)[C@@H](CC(=O)N(C)CCc1ccccn1)Cc1ccccc1 ? 14

Which IC50 value belongs to CC(C)C[C@H](O)[C@H](O)[C@H](CC1CCCCC1)NC(=O)[C@H](Cn1cccn1)NC(=O)[C@@H](CC(=O)N(C)CCc1ccccn1)Cc1ccccc1 ? 1.6

Which IC50 value belongs to CC(C)C[C@H](O)[C@H](O)[C@H](CC1CCCCC1)NC(=O)[C@H](Cc1cscn1)NC(=O)[C@H](Cc1ccccc1)CS(=O)(=O)C1CN(C)C1 ? 3.9
